# test summary: Intrinsic clearance in rat liver microsomes in presence of NADPH
# Assay type: ADME, Microsome
# condition description: read-out: CLH
readout name: CLint scaled (mL/min/kg)
Form entry: value (mL/min/kg) — number only.

Reported CLint scaled for "Cc1nccc(Nc2cc(NC3CCN(c4ccc(C#N)cc4)CC3)c(C(N)=O)cn2)n1" : what is it?
146

---

# test summary: Cmax in rat at 1 mg/kg, po
# Assay type: ADME, organism-based
# Set-up: dose 1 mg/kg, route oral
# condition description: in vivo
readout name: Cmax
Put down the number, then write its unit next to it.

Reported Cmax for "Cc1nccc(Nc2cc(NC3CCN(c4ccc(C#N)cc4)CC3)c(C(N)=O)cn2)n1" : what is it?
52.9 ng/mL

---

# test summary: Effective permeability of the compound at pH 6.5 by PAMPA
# Assay type: ADME
# condition description: read-out: Peff
readout name: Papp

Reported Papp for "Cc1nccc(Nc2cc(NC3CCN(c4ccc(C#N)cc4)CC3)c(C(N)=O)cn2)n1" : what is it?
> 30 ×10⁻⁶ cm/s

---

Can you tell me IC50 for the items I'm about to list?
Form entry: value (nM) — number only.

Form field: IC50 recorded for "Cc1cnc(Nc2cc(NC3CCN(c4ccc(C#N)cn4)CC3)c(C(N)=O)cn2)cn1" with Tyrosine-protein kinase JAK1 (Homo sapiens, UniProt P23458) (enter value)
Sequence (P23458 whole entry): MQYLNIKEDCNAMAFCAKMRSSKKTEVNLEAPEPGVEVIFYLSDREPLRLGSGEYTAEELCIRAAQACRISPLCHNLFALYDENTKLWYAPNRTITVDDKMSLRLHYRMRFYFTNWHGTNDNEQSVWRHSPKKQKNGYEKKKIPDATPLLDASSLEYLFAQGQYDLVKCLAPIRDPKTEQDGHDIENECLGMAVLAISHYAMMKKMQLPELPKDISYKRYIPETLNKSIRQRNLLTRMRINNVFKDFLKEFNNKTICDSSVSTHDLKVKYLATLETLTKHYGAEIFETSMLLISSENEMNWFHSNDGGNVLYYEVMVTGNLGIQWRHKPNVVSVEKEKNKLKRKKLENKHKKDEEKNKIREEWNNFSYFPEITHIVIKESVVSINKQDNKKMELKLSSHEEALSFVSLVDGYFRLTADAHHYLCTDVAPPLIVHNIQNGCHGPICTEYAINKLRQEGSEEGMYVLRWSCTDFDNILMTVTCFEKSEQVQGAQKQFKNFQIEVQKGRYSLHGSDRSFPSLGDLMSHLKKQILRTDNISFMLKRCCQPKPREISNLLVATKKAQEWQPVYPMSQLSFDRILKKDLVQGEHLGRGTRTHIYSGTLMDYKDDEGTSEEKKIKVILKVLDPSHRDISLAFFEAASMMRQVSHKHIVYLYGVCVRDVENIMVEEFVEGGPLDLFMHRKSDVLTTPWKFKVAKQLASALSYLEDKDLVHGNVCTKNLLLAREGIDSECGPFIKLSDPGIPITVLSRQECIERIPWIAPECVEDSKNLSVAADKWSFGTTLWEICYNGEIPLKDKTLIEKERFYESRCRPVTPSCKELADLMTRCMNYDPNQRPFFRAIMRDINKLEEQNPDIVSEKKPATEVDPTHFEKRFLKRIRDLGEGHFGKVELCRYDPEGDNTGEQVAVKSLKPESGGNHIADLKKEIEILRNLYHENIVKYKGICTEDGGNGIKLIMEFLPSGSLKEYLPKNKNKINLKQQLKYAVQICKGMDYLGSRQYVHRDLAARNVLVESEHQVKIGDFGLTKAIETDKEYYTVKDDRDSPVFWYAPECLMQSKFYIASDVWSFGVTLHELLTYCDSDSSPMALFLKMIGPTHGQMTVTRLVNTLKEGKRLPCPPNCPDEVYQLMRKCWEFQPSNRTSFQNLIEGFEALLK
6.7

Form field: IC50 recorded for "Cc1cncc(Nc2cc(NC3CCN(c4ccc(C#N)cn4)CC3)c(C(N)=O)cn2)n1" with Tyrosine-protein kinase JAK1 (Homo sapiens, UniProt P23458) (enter value)
1.9

Form field: IC50 recorded for "Cc1nccc(Nc2cc(NC3CCN(c4ccc(C#N)cc4)CC3)c(C(N)=O)cn2)n1" with Tyrosine-protein kinase JAK1 (Homo sapiens, UniProt P23458) (enter value)
4.2

Form field: IC50 recorded for "N#Cc1ccc(N2CCC(Nc3cc(Nc4ccccn4)ncc3C(N)=O)CC2)nc1" with Tyrosine-protein kinase JAK1 (Homo sapiens, UniProt P23458) (enter value)
2.9

---

# test summary: Intrinsic clearance in human liver microsomes in presence of NADPH
# Assay type: ADME, Microsome
# condition description: read-out: CLH
readout name: CLint scaled
Put down the number, then write its unit next to it.

Reported CLint scaled for "Cc1nccc(Nc2cc(NC3CCN(c4ccc(C#N)cc4)CC3)c(C(N)=O)cn2)n1" : what is it?
109 mL/min/kg

---

# target system: Voltage-gated inwardly rectifying potassium channel KCNH2 (Homo sapiens, UniProt Q12809)
# Sequence (Q12809 whole entry): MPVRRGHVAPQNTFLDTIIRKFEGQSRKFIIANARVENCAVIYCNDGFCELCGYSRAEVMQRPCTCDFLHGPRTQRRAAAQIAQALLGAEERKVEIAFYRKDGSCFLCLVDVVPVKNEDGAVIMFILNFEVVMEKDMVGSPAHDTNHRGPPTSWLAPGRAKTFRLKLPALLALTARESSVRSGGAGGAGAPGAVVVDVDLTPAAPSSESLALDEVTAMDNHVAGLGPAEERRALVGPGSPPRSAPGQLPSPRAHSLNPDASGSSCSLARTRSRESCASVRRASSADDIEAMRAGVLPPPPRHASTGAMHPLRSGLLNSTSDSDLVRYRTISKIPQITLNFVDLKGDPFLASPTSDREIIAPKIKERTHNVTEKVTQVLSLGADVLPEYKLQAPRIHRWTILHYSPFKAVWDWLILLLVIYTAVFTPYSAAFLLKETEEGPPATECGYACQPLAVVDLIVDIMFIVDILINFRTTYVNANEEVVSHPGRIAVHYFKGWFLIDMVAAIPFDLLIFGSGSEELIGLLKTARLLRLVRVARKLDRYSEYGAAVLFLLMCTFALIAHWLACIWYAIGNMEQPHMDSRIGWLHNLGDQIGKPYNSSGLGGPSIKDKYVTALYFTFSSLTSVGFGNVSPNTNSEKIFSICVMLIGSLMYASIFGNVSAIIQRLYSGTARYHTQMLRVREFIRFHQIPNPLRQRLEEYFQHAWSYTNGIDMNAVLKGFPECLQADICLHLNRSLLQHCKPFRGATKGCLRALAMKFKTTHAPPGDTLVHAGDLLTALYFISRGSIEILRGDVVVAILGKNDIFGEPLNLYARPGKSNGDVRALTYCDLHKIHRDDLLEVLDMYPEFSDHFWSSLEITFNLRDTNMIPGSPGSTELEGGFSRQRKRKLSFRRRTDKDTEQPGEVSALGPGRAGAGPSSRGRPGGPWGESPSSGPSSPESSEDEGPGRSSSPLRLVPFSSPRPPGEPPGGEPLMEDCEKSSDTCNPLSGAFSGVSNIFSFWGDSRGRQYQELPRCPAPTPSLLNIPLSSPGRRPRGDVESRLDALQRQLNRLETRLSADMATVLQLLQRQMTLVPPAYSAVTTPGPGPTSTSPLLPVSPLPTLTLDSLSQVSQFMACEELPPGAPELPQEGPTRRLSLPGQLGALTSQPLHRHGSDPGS
# test summary: Inhibition of human ERG expressed in CHO-K1 cells after 10 mins by Rb efflux assay
Can you tell me pIC50 for the items I'm about to list?
Please treat pIC50 as minus the base-10 logarithm of the molar concentration.

Reported pIC50 for "N#Cc1ccc(N2CCC(Nc3cc(Nc4ccncn4)ncc3C(N)=O)CC2)nc1" : what is it?
4.77

Reported pIC50 for "N#Cc1ccc(N2CCC(Nc3cc(Nc4ccccn4)ncc3C(N)=O)CC2)nc1" : what is it?
6.44

Reported pIC50 for "N#Cc1ccc(N2CCC(Nc3cc(Nc4cnccn4)ncc3C(N)=O)CC2)nc1" : what is it?
5.11

Reported pIC50 for "Cc1cncc(Nc2cc(NC3CCN(c4ccc(C#N)cn4)CC3)c(C(N)=O)cn2)n1" : what is it?
5.27

Reported pIC50 for "Cc1nccc(Nc2cc(NC3CCN(c4ccc(C#N)cn4)CC3)c(C(N)=O)cn2)n1" : what is it?
5.09

Reported pIC50 for "Cc1cnc(Nc2cc(NC3CCN(c4ccc(C#N)cn4)CC3)c(C(N)=O)cn2)cn1" : what is it?
5.32

---

# test summary: Half life in rat at 1 mg/kg, iv
# Format: ADME, organism-based
# condition description: in vivo
readout name: half-life (h)
Form entry: value (h) — number only.

Reported half-life for "Cc1nccc(Nc2cc(NC3CCN(c4ccc(C#N)cc4)CC3)c(C(N)=O)cn2)n1" : what is it?
3.4

---

readout name: IC50 (nM)
Form entry: value (nM) — number only.

Form field: IC50 recorded for "Cc1cncc(Nc2cc(NC3CCN(c4ccc(C#N)cn4)CC3)c(C(N)=O)cn2)n1" with Tyrosine-protein kinase JAK2 (Homo sapiens, UniProt O60674) (enter value)
Sequence (O60674 whole entry): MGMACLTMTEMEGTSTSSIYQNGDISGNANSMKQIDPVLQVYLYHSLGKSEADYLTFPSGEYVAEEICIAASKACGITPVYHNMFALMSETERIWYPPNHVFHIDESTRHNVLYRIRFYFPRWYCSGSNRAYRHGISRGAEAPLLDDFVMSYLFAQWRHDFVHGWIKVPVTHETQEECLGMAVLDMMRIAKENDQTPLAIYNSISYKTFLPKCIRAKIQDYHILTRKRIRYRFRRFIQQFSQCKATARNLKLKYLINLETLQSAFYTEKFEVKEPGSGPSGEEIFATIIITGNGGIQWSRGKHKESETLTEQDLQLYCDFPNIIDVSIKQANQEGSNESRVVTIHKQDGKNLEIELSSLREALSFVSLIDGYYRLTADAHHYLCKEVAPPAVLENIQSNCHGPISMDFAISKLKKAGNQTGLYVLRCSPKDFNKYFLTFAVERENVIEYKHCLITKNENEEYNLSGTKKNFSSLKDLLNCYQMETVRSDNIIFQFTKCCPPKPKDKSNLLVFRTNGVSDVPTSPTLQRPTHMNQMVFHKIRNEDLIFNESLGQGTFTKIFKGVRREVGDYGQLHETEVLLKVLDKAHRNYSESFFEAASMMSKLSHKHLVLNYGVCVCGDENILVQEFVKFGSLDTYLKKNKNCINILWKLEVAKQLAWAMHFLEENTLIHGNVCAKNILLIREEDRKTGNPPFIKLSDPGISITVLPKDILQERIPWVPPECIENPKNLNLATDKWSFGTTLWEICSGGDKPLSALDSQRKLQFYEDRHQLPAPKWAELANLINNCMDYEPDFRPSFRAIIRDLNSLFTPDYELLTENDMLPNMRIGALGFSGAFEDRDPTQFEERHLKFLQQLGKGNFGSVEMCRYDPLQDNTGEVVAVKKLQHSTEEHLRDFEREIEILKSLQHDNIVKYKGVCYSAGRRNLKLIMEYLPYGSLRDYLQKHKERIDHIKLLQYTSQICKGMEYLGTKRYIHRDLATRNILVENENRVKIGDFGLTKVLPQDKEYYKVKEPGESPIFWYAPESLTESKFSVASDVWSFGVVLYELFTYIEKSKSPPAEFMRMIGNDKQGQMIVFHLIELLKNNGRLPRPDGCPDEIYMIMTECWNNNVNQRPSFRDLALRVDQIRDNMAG
4

Form field: IC50 recorded for "Cc1nccc(Nc2cc(NC3CCN(c4ccc(C#N)cn4)CC3)c(C(N)=O)cn2)n1" with Tyrosine-protein kinase JAK2 (Homo sapiens, UniProt O60674) (enter value)
3.2

Form field: IC50 recorded for "N#Cc1ccc(N2CCC(Nc3cc(Nc4ccncn4)ncc3C(N)=O)CC2)nc1" with Tyrosine-protein kinase JAK2 (Homo sapiens, UniProt O60674) (enter value)
5.5

Form field: IC50 recorded for "N#Cc1ccc(N2CCC(Nc3cc(Nc4cnccn4)ncc3C(N)=O)CC2)nc1" with Tyrosine-protein kinase JAK2 (Homo sapiens, UniProt O60674) (enter value)
4.1

Form field: IC50 recorded for "Cc1nccc(Nc2cc(NC3CCN(c4ccc(C#N)cc4)CC3)c(C(N)=O)cn2)n1" with Tyrosine-protein kinase JAK2 (Homo sapiens, UniProt O60674) (enter value)
3.5

---

# test summary: Oral bioavailability in rat at 1 mg/kg
# Type: ADME, organism-based
# condition description: in vivo
readout name: bioavailability
Put down the number, then write its unit next to it.

Reported bioavailability for "Cc1nccc(Nc2cc(NC3CCN(c4ccc(C#N)cc4)CC3)c(C(N)=O)cn2)n1" : what is it?
23.6%

---

# test summary: AUC (0 to 24 hrs) in rat at 1 mg/kg, po
# Format: ADME, organism-based
# Parameters: dose 1 mg/kg, time < 24 hr, route oral
# condition description: in vivo
readout name: AUC(0-t) at 24 h (ng·h/mL)
Form entry: value (ng·h/mL) — number only.

Reported AUC(0-t) at 24 h for "Cc1nccc(Nc2cc(NC3CCN(c4ccc(C#N)cc4)CC3)c(C(N)=O)cn2)n1" : what is it?
278

---

# test summary: AUC (0 to 24 hrs) in rat at 1 mg/kg, iv
# Format: ADME, organism-based
# Design: dose 1 mg/kg, time < 24 hr, route intravenous
# condition description: in vivo
readout name: AUC(0-t) at 24 h (ng·h/mL)
Form entry: value (ng·h/mL) — number only.

Reported AUC(0-t) at 24 h for "Cc1nccc(Nc2cc(NC3CCN(c4ccc(C#N)cc4)CC3)c(C(N)=O)cn2)n1" : what is it?
1180

---

readout name: IC50
Put down the number, then write its unit next to it.

Form field: IC50 recorded for "Cc1nc2cc(Nc3cc(NC4CCN(c5ccc(C#N)cn5)CC4)c(C(N)=O)cn3)ccc2o1" with Tyrosine-protein kinase JAK3 (Homo sapiens, UniProt P52333) (enter value)
Sequence (P52333 whole entry): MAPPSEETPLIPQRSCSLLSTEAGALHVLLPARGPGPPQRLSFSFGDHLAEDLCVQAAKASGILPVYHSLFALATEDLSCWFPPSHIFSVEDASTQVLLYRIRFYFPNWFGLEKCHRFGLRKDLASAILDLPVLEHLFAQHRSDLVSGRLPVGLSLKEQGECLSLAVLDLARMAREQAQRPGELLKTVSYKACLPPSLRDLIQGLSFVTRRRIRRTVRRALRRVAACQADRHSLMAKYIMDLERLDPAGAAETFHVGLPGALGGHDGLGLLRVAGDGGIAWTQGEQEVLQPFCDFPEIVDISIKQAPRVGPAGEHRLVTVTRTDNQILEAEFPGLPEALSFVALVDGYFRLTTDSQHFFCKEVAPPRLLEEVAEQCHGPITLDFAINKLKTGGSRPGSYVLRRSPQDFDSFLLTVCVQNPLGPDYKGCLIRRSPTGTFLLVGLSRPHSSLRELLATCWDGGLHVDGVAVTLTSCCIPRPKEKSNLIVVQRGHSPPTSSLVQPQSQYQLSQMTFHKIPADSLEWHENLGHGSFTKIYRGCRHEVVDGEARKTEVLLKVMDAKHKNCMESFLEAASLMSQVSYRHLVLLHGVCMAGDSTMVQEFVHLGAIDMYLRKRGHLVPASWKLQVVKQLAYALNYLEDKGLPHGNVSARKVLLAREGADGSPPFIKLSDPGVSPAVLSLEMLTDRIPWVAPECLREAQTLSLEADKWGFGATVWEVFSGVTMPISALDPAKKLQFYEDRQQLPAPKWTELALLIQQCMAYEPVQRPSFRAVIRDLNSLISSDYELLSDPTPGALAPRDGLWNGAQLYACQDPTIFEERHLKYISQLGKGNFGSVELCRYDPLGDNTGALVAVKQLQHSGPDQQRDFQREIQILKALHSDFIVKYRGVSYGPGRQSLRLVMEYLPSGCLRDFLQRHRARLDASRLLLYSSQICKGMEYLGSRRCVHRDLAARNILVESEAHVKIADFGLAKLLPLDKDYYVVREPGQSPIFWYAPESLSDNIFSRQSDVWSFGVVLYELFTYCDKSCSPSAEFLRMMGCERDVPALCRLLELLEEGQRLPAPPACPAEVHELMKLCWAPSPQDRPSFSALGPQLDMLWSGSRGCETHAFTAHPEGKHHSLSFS
0.022 µM

Form field: IC50 recorded for "Cc1nc2ccc(Nc3cc(NC4CCN(c5ccc(C#N)cn5)CC4)c(C(N)=O)cn3)cc2o1" with Tyrosine-protein kinase JAK3 (Homo sapiens, UniProt P52333) (enter value)
0.025 µM

Form field: IC50 recorded for "C[C@@H]1CCCC[C@@H]1Nc1cc(Nc2ccccc2)ncc1C(N)=O" with Tyrosine-protein kinase JAK3 (Homo sapiens, UniProt P52333) (enter value)
0.037 µM

Form field: IC50 recorded for "Cc1cncc(Nc2cc(NC3CCN(c4ccc(C#N)cn4)CC3)c(C(N)=O)cn2)n1" with Tyrosine-protein kinase JAK3 (Homo sapiens, UniProt P52333) (enter value)
0.001 µM

---

# test summary: Total clearance in rat at 1 mg/kg, iv
# Assay type: ADME, organism-based
# condition description: in vivo
readout name: clearance

Reported clearance for "Cc1nccc(Nc2cc(NC3CCN(c4ccc(C#N)cc4)CC3)c(C(N)=O)cn2)n1" : what is it?
14.3 mL/min/kg

Data origin: ChEMBL document CHEMBL4428070
